// provenance: paper PMC3379994

Target: Hck (Homo sapiens, UniProt P08631)
Sequence (P08631 78-138): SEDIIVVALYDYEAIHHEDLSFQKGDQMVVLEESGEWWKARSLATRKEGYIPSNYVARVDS
Details: n = 3
Description: To characterize the binding of SH3-phages to recombinant proteins, phage-ELISA analyses were performed. First, 1 µg of recombinant protein per well was immobilized on 96-well MaxiSorp plates (Nunc) over night. […] After washing again 10 times, TMB substrate solution was added, the reaction finally stopped by addition of 0.5 M H2SO4, and the result read out by measuring OD450. First, we aimed at quantifying the binding affinities of the SH3-displaying phages to Sam68. […]
pKd: −log10 of the molar value.
RECORDED METRIC: pKd

| SUBSTANCE | TEST VALUE |
| --- | --- |
| Src-associated in mitosis 68 kDa (KHDRBS1), full-length, N-terminally His-tagged recombinant [Sam68] | 7.51 |
